Data provenance: the supplement of paper PMC6755084

# Tested on: F1*sub RNA substrate (template-directed ligation)
# Experiment: fraction ligated after 30 min (ligated reads / total reads); higher = more ligase activity; sequences stand for … in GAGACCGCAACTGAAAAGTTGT…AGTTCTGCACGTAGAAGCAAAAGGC
# Study conditions: 42 °C
Endpoint: fraction ligated
Simply state the number, no unit and no words.

Answered cases to consult:
[
  {
    "Polymer sequence": "ATCCTTGTCGTAAGACACTTTGGATGGTTGA [3d83]",
    "fraction ligated": 0.138
  },
  {
    "Polymer sequence": "TATCCTTTCGTAAGACACTTTGGTGGGTTGA [3d979]",
    "fraction ligated": 0.0729
  }
]

GET /values?item= TATCACTTGCGTAAACATTTGGATGGGTTGA [3d1641] &system= F1*sub RNA substrate (template-directed ligation) returns fraction ligated: 0.822

GET /values?item= TATCACTTGTGTAAGAACTTTGGAGGGTTGA [3d1768] &system= F1*sub RNA substrate (template-directed ligation) returns fraction ligated: 0.0385
